Organism: Homo sapiens
protocol.text: Selectivity index, ratio of IC50 for human recombinant JAK2 to IC50 for human recombinant JAK1
Reported Ratio IC50 is given for each of the following molecules.

{"entry.smiles": "COc1ccc(-c2cccc3nc(NC(=O)C4CC4)nn23)cn1", "Ratio IC50": 1.5}
{"entry.smiles": "O=C(NCCc1ccn(-c2ccccc2)n1)c1ccc(-c2cccc3nc(NC(=O)C4CC4)nn23)cc1", "Ratio IC50": 5.3}
{"entry.smiles": "COCc1cccc(-c2cccc3nc(NC(=O)C4CC4)nn23)c1", "Ratio IC50": 0.9}
{"entry.smiles": "COc1ccccc1-c1cccc2nc(NC(=O)C3CC3)nn12", "Ratio IC50": 1.5}
{"entry.smiles": "N#CCc1ccccc1NCc1ccc(-c2cccc3nc(NC(=O)C4CC4)nn23)cc1", "Ratio IC50": 11.4}

Reference for the values: ChEMBL document CHEMBL3351789
